Target: EBOV-GP (Zaire ebolavirus)
Sequence (Q05320 33-676 limits assumed): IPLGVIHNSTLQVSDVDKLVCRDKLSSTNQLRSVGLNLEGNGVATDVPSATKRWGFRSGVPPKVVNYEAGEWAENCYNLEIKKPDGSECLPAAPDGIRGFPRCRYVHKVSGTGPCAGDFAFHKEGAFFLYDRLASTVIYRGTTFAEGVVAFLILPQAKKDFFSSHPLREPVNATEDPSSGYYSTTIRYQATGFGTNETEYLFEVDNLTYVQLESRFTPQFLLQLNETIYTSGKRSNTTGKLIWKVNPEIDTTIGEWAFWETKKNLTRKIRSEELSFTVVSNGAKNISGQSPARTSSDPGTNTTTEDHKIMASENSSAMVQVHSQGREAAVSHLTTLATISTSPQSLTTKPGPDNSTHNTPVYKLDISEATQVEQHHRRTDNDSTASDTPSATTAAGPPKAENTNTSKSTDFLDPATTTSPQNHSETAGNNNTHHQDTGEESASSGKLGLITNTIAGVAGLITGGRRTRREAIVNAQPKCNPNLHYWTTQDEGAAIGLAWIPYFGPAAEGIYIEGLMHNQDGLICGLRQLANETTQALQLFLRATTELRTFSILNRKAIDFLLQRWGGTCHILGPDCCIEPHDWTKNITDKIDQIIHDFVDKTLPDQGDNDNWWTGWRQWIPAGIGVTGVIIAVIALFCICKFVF
MEASUREMENT TYPE: pKd
One number for each entry, as −log10 of the molar value.

Which pKd value belongs to Oc1cc(O)c2c(c1)O[C@H](c1ccc(O)c(O)c1)[C@H](O)[C@H]2c1c(O)cc(O)c2c1O[C@H](c1ccc(O)c(O)c1)[C@H](O)C2 ?
4.89

----------
Test system: EBOVpp
Assay: microbe, parasite or virus in culture
Format: cell-based, Zaire ebolavirus
Settings: Zaire ebolavirus, A549; n = 3; read-out: EBOVpp IC50
So I've got a bunch of compounds here, and I need their pIC50 values.
Numbers only, as −log10 of the molar value.

Would you please look over these solved cases?
>  <COMPOUND>
Oc1cc(O)c2c(c1)O[C@H](c1ccc(O)c(O)c1)[C@@H](O)[C@@H]2c1c(O)cc(O)c2c1O[C@H](c1ccc(O)c(O)c1)[C@@H](O)C2

>  <pIC50>
5.82

$$$$
>  <COMPOUND>
Oc1cc(O)c2c(c1)O[C@H](c1ccc(O)c(O)c1)[C@H](O)[C@H]2c1c(O)cc(O)c2c1O[C@H](c1ccc(O)c(O)c1)[C@@H](O)C2

>  <pIC50>
6.02

$$$$
>  <COMPOUND>
Oc1cc(O)c2c(c1)O[C@H](c1ccc(O)c(O)c1)[C@H](O)[C@H]2c1c(O)cc(O)c2c1O[C@H](c1ccc(O)c(O)c1)[C@H](O)C2

>  <pIC50>
6.08

$$$$
>  <COMPOUND>
Oc1cc(O)c2c(c1)O[C@H](c1cc(O)c(O)c(O)c1)[C@@H](O)C2

>  <pIC50>
4.91

$$$$
>  <COMPOUND>
CN(C)CCOc1ccc(/C(=C(/CCCl)c2ccccc2)c2ccccc2)cc1 [Toremifene, toremifene, reference compound]

>  <pIC50>
6.77

$$$$

Next, consider the following compound.
Param readout= pIC50; system= EBOVpp; entry= Oc1cc(O)c2c(c1)O[C@H](c1ccc(O)c(O)c1)[C@@H](O)C2 [(+) Catechin (4), (+)-catechin] ; returns value.
4.44

----------
Tested on: EBOVpp
Assay: microbe, parasite or virus in culture
Assay type: cell-based, Zaire ebolavirus
Details: Zaire ebolavirus, A549; n = 3; read-out: EBOVpp IC50
Task for the reader: assign each of the following compounds its reported pIC50.
Numbers only, as −log10 of the molar value.

Field: example entries. Status: answers known.
>  <COMPOUND>
Oc1cc(O)c2c(c1)O[C@H](c1cc(O)c(O)c(O)c1)[C@H](O)C2 [Epigallocatechin (11), epigallocatechin]

>  <TEST TARGET>
EBOVpp

>  <pIC50>
5.26

$$$$
>  <COMPOUND>
Oc1cc(O)c2c(c1)O[C@H](c1ccc(O)c(O)c1)[C@H](O)C2 [(−) Epicatechin (5), (−)-epicatechin]

>  <TEST TARGET>
EBOVpp

>  <pIC50>
4.66

$$$$

Name the reported pIC50 value associated with the compound O=C(O[C@@H]1Cc2c(O)cc(O)cc2O[C@@H]1c1cc(O)c(O)c(O)c1)c1cc(O)c(O)c(O)c1 [EGCG (8), (−)-epigallocatechin-3-O-gallate]
5.55

----------
Tested on: EBOVpp
Test: microbe, parasite or virus in culture
Type: cell-based, Zaire ebolavirus
Conditions: Zaire ebolavirus, A549; n = 3; read-out: EBOVpp IC50
pIC50: −log10 of the molar value.
MEASUREMENT TYPE: pIC50

Some compounds with recorded pIC50:
>  <COMPOUND>
O=C(O[C@@H]1Cc2c(O)cc(O)cc2O[C@@H]1c1ccc(O)c(O)c1)c1cc(O)c(O)c(O)c1 [ECG (9), epicatechin 3-O-gallate]

>  <TEST TARGET>
EBOVpp

>  <OBS VALUE>
5.53

$$$$
>  <COMPOUND>
Oc1cc(O)c2c(c1)O[C@H](c1ccc(O)c(O)c1)[C@H](O)[C@H]2c1c(O)cc(O)c2c1O[C@H](c1ccc(O)c(O)c1)[C@H](O)[C@H]2c1c(O)cc(O)c2c1O[C@H](c1ccc(O)c(O)c1)[C@H](O)C2 [Procyanidin C1 (2), procyanidin C1]

>  <TEST TARGET>
EBOVpp

>  <OBS VALUE>
< 4.94

$$$$

Name the reported pIC50 value associated with the compound Oc1cc(O)c2c(c1)OC(c1ccc(O)c(O)c1)C(O)C2c1c(O)cc(O)c2c1OC(c1ccc(O)c(O)c1)C(O)C2c1c(O)cc(O)c2c1OC(c1ccc(O)c(O)c1)C(O)C2c1c(O)cc(O)c2c1OC(c1ccc(O)c(O)c1)C(O)C2 (stereo not drawn) [Procyanidin tetramer (3)]
< 4.94

These measurements were taken from paper PMC8910447.
